Data provenance: patent US6764682B1

- Test system: peptide-specific IgG antibodies
- assay.details: Guinea pig antibody responses to synthetic peptides formulated with different adjuvants (peptide-specific ELISA)
- Assay type: in vivo
- condition.set: adjuvant CFA; mean titer of three guinea pigs, three injections; 100 μg peptide per dose (CLTB-36 20 μg)
measured.endpoint: Peptide-Specific Antibody Titre

>>> experimental_result("IKEIDESESEDYAKEGFRAP [PSP-AA]")
"12,500"
>>> experimental_result("PDPGDLVEYIMNYTGNQQSRWGLGSPNCHGPDWASPVCQRHSP [RV-EP27]")
"128,000"
>>> experimental_result("QSYSIMSIIKEEVLAYAVQLPLPLYGVIDTP [RSV-F]")
"6,400"
>>> experimental_result("CSNNPTCWAICKRIPNKKPGKKT [RSV-G2]")
"128,000"
>>> experimental_result("TKQRQNKPPSKPNNDFHFEVFNFVPC [RSV-G1]")
"315,000"
>>> experimental_result("GPKEPFRDYVDRFYKNTRKRIRIQRGGRAFVTIGK [CLTB-72]")
"312,500"
>>> experimental_result("TVGKKTYQVEACCSNLSYVKFGM [TBP2-3]")
"12,500"
>>> experimental_result("GPKEPFRDYVDRFYKNRKRIHIGPGRAFYTTKN [CLTB-36]")
"256,000"
>>> experimental_result("GPKEPFRDYVDRFYKNTRQSTPIGLGQALYTTRG [CLTB-76]")
"625,000"
>>> experimental_result("PIVNKQSCSISNIETVIEFQQ [RSV-FND2]")
"12,800"
>>> experimental_result("PQPGPQPPQPPQPQPEAPAPQPPC [69K-P1]")
"10,000"
>>> experimental_result("NQITSALSTQQEFRDLKKYLPSKDKSVVSLQDRAC [HIBP1-5E]")
"312,500"

====

- Tested on: peptide-specific IgG antibodies
- assay.details: Guinea pig antibody responses to synthetic peptides formulated with different adjuvants (peptide-specific ELISA)
- Type: in vivo
- condition.set: adjuvant BAY R1005; mean titer of three guinea pigs, three injections; 100 μg peptide per dose (CLTB-36 20 μg)
measured.endpoint: Peptide-Specific Antibody Titre

>>> experimental_result("TVGKKTYQVEACCSNLSYVKFGM [TBP2-3]")
"32,500"
>>> experimental_result("NQITSALSTQQEFRDLKKYLPSKDKSVVSLQDRAC [HIBP1-5E]")
"32,500"
>>> experimental_result("PQPGPQPPQPPQPQPEAPAPQPPC [69K-P1]")
"32,500"
>>> experimental_result("TKQRQNKPPSKPNNDFHFEVFNFVPC [RSV-G1]")
"31,500"
>>> experimental_result("QSYSIMSIIKEEVLAYAVQLPLPLYGVIDTP [RSV-F]")
"3,850"
>>> experimental_result("PIVNKQSCSISNIETVIEFQQ [RSV-FND2]")
"10,000"
>>> experimental_result("GPKEPFRDYVDRFYKNRKRIHIGPGRAFYTTKN [CLTB-36]")
"72,800"
>>> experimental_result("GPKEPFRDYVDRFYKNTRKRIRIQRGGRAFVTIGK [CLTB-72]")
"45,800"
>>> experimental_result("CSNNPTCWAICKRIPNKKPGKKT [RSV-G2]")
"3,200"
>>> experimental_result("GPKEPFRDYVDRFYKNTRQSTPIGLGQALYTTRG [CLTB-76]")
"45,833"

====

Listed here are sequences together with their documented Peptide-Specific Antibody Titre.
- Tested on: peptide-specific IgG antibodies
- assay.details: Guinea pig antibody responses to synthetic peptides formulated with different adjuvants (peptide-specific ELISA)
- Type: in vivo
- condition.set: adjuvant alum; mean titer of three guinea pigs, three injections; 100 μg peptide per dose (CLTB-36 20 μg)
measured.endpoint: Peptide-Specific Antibody Titre

>>> experimental_result("PQPGPQPPQPPQPQPEAPAPQPPC [69K-P1]")
"32,500"
>>> experimental_result("PDPGDLVEYIMNYTGNQQSRWGLGSPNCHGPDWASPVCQRHSP [RV-EP27]")
"12,800"
>>> experimental_result("CSNNPTCWAICKRIPNKKPGKKT [RSV-G2]")
"31,500"
>>> experimental_result("QSYSIMSIIKEEVLAYAVQLPLPLYGVIDTP [RSV-F]")
"32,000"
>>> experimental_result("TVGKKTYQVEACCSNLSYVKFGM [TBP2-3]")
"43,333"
>>> experimental_result("NQITSALSTQQEFRDLKKYLPSKDKSVVSLQDRAC [HIBP1-5E]")
"8,333"
>>> experimental_result("IKEIDESESEDYAKEGFRAP [PSP-AA]")
"1,600"
>>> experimental_result("GPKEPFRDYVDRFYKNTRKRIRIQRGGRAFVTIGK [CLTB-72]")
"37,500"
>>> experimental_result("PIVNKQSCSISNIETVIEFQQ [RSV-FND2]")
"7,800"
>>> experimental_result("TKQRQNKPPSKPNNDFHFEVFNFVPC [RSV-G1]")
"128,000"
>>> experimental_result("GPKEPFRDYVDRFYKNRKRIHIGPGRAFYTTKN [CLTB-36]")
"10,000"
>>> experimental_result("GPKEPFRDYVDRFYKNTRQSTPIGLGQALYTTRG [CLTB-76]")
"9,166"
